System: L1210 leukemia ip in BDF1 mice, survival T/C
Assay: NCI In Vivo Anticancer Drug Screen. Data for tumor model L1210 Leukemia (intraperitoneal) in B6D2F1 (BDF1) mice
Settings: endpoint: mean survival time; dose: 50.0 mg/kg/injection; schedule: Q01DX001 (ip); vehicle: saline with Tween-80; higher = longer survival
Toxic doses and inconclusive results are not listed.
Would you kindly list T/C for each of these molecules?

Any idea what T/C came out for CCCCCCCCCN(CCCC)CCCC on L1210 leukemia ip in BDF1 mice, survival T/C?
88 % of control

What would you report for CC(Oc1ccccc1)C(=O)NC(=S)Nc1ccc(Cl)cc1 (stereo unspecified) ?
97 % of control

What would you report for COc1nc(C)c(C)[n+]([O-])n1 ?
107 % of control

What would you report for CCOC(=O)c1ccc(NC(=S)NC(=O)c2cccc([N+](=O)[O-])c2)cc1 ?
88 % of control

What would you report for OC1CCC2CC12 (stereo unspecified) ?
98 % of control

What would you report for O=C1OC2CCCC1C2 (stereo unspecified) ?
104 % of control

src = PubChem BioAssay AID248
